Assay: qHTS for identification of novel therapeutic agents for treatment of microphthalmiaassociated transcription factor (MiT) renal cell carcinoma (RCC) (AID 1963991);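 further: curves scaled with 100% = DMSO viability and 0% = empty wells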
Conditions: TFE3-RCC UOK109 viability, CellTiter-Glo, 48 h; measured here: UOK109 Z-AUC; stronger effect = lower value
Results filed as inconclusive are left out.
Metric: z-score
Please reply with the value in numeric form only.

q: Recorded z-score for C#CC1(O)CCC2C3CCC4=CC(=O)CCC4(C)C3CCC21C (stereo not drawn) , please?
a: 0.285

q: Recorded z-score for CCOP(=O)(OCC)C(C)NC(=O)N(CCCl)N=O (stereo not drawn) , please?
a: 0.0132

q: Recorded z-score for C1=C2CCCN[C@H]2[C@@H]2C[C@H]1[C@@H]1CCCCN1C2 , please?
a: -0.0816

###

Experiment: qHTS for Inhibitors of the Functional Ribonucleoprotein Complex (vRNP) of Lymphocytic Choriomeningitis Arenaviruses (LCMV): Viability assay - alamar blue signal for LCMV Primary Screen (AID 1347085); further: on the % scale 0 is the no-effect control and ±100 the full control effect; nearly all actives have a fitted effect of over 80% in size
Details: alamar blue viability counter-screen, LCMV vRNP screen cells; series mostly up to 57.5 µM
Records with an inconclusive call do not appear. Active and inactive are the calls of the source. The call rests on the fitted dose curve; tested in HEK293 reporter line.
Log the outcome using a class from t for active, f for inactive

q: Hello, I am checking results. What call was entered for C#C[C@]1(O)C=C[C@@H]2[C@@H]3CCC4=CC(=O)CC[C@@H]4[C@H]3CC[C@@]21CC ?
a: f

###

Experiment: qHTS profiling of the MIPE4 collection as inhibitors of Plasmodium falciparum (3D7) proliferation (AID 743344);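 further: scaled between DMSO vehicle wells and 0.29 µM artemisinin as full inhibition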
Conditions: P. falciparum 3D7 in erythrocytes, SYBR Green DNA fluorescence, 72 h; at 28.5 µM (top of the series)
Method: Plasmodium falciparum is a virulent malarial parasite that kills 1-2 million people worldwide each year. […] Because mature erythrocytes lack DNA, only Plasmodium-derived DNA is detected. The SYBR Green viability assay was adapted from a method described previously (Plouffe et al., 2008). […] The following morning, fluorescence intensity at 485(14) nm excitation and 535(25) nm emission wavelengths was measured on an EnVision (Perkin Elmer) plate reader. […]
Mark label 1 for reported parasite growth, % of DMSO control of 80% or greater; mark label 0 for anything smaller.

- Compound: "CC(C)[C@]12O[C@@H]1[C@@H]1O[C@]13[C@]1(O[C@H]1C[C@@H]1C4=C(CC[C@@]13C)C(=O)OC4)[C@H]2O"
  Category: "label 0"
- Compound: "CN(C)NC(=O)CCC(=O)O"
  Category: "label 1"
- Compound: "NC1CC1c1ccccc1 (stereo unspecified)"
  Category: "label 1"
- Compound: "Cc1[nH]nc2ccc(-c3cncc(OC[C@@H](N)Cc4c[nH]c5ccccc45)c3)cc12"
  Category: "label 0"
- Compound: "N#C[C@H](O[C@@H]1O[C@H](CO[C@@H]2O[C@H](CO)[C@H](O)[C@H](O)[C@H]2O)[C@H](O)[C@H](O)[C@H]1O)c1ccccc1"
  Category: "label 0"
- Compound: "C=C1C[C@H]2[C@H]3CCC(=O)[C@@]3(C)CC[C@@H]2[C@@]2(C)C=CC(=O)C=C12"
  Category: "label 0"

q: Could you tell me if the measured parasite growth, % of DMSO control of CC(C)[C@H]1C(=O)N[C@H](CO)Cc2c[nH]c3cccc(c23)N1C reaches 80% or more?
a: label 1

q: Could you tell me if the measured parasite growth, % of DMSO control of COc1ccc(CC2NCCc3cc(OC)c(OC)cc32)cc1OC (stereo unspecified) reaches 80% or more?
a: label 1

q: Could you tell me if the measured parasite growth, % of DMSO control of COc1cc([C@@H]2c3cc4c(cc3[C@@H](O)C3COC(=O)C32)OCO4)cc(OC)c1O (stereo partly specified) reaches 80% or more?
a: label 0

q: Could you tell me if the measured parasite growth, % of DMSO control of COc1ccc2c(c1)CC[C@H]1[C@@H]2CC[C@]2(C)[C@@H](NCCCCCCN3C(=O)C=CC3=O)CC[C@H]12 reaches 80% or more?
a: label 0

q: Could you tell me if the measured parasite growth, % of DMSO control of O=C(NCC1CCOCC1)c1cnc(Nc2ccc(Cl)cc2Cl)nc1C(F)(F)F reaches 80% or more?
a: label 0

q: Could you tell me if the measured parasite growth, % of DMSO control of CCNC(=O)CC1N=C(c2ccc(Cl)cc2)c2cc(OC)ccc2-n2c(C)nnc21 (stereo unspecified) reaches 80% or more?
a: label 0

q: Could you tell me if the measured parasite growth, % of DMSO control of COc1ccc2c(c1)[C@]13CCCCC1C(C2)N(C)CC3 (stereo partly specified) reaches 80% or more?
a: label 1

q: Could you tell me if the measured parasite growth, % of DMSO control of CCOC(=O)c1c(C(C#N)=CN)c2ccc(Cl)c(Cl)c2n1C reaches 80% or more?
a: label 1

q: Could you tell me if the measured parasite growth, % of DMSO control of c1ccc2c(CN3CCNCC3)cccc2c1 reaches 80% or more?
a: label 1

q: Could you tell me if the measured parasite growth, % of DMSO control of c1cc2c(cc1[C@H]1OC[C@H]3[C@H]1CO[C@H]3c1ccc3c(c1)OCO3)OCO2 reaches 80% or more?
a: label 1

q: Could you tell me if the measured parasite growth, % of DMSO control of O=S(=O)(CC1CS1)c1ccc(Oc2ccccc2)cc1 (stereo unspecified) reaches 80% or more?
a: label 1

q: Could you tell me if the measured parasite growth, % of DMSO control of O=C1CCC[C@@H]2[C@H]3CCCN4CCC[C@@H](CN12)[C@@H]34 reaches 80% or more?
a: label 1

q: Could you tell me if the measured parasite growth, % of DMSO control of O=c1cccc2n1CC1CNC[C@H]2C1 reaches 80% or more?
a: label 0

q: Could you tell me if the measured parasite growth, % of DMSO control of CCOP(=O)(OCC)C(C)NC(=O)N(CCCl)N=O (stereo unspecified) reaches 80% or more?
a: label 1
